# measurementTarget: phosphorylated PDK1 (Homo sapiens (Human))
# Sequence (O15530 51-360): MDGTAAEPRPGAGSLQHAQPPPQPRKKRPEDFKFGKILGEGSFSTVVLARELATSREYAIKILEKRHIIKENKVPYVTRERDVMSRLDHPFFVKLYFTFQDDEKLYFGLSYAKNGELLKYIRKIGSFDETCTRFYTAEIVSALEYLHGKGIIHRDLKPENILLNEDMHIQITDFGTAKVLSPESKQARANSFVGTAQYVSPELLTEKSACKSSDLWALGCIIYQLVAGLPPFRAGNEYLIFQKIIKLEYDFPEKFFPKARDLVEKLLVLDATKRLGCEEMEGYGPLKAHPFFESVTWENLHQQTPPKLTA
Provide the recorded IC50 for the entries that follow.

Please look up its IC50: O=C(Nc1c(F)cccc1Oc1ccc2[nH]c(=O)[nH]c2c1)c1cccn(Cc2ccc(F)c(F)c2)c1=O [Cpd 133] < 500 nM

# repeat for CC(C)=C1C(=O)Nc2cc(/C=C/CNC(=O)c3cccn(Cc4cc(F)c(F)c(F)c4)c3=O)ccc21 [Cpd 204] < 500 nM

# repeat for NCc1cnc2[nH]cc(-c3cccc(CNC(=O)c4cccn(Cc5ccc(F)c(F)c5)c4=O)c3)c2c1 [Cpd 37] < 500 nM

# repeat for O=C(NCc1cccc(-c2ccc3nonc3c2)c1)c1cccn(Cc2ccc(F)c(F)c2)c1=O [Cpd 219] > 10000 nM

# repeat for O=C(N[C@@H](COc1ccc2[nH]c(=O)[nH]c2c1)c1ccccc1)c1cccn(Cc2cc(F)c(F)c(F)c2)c1=O [Cpd 174] < 500 nM

# repeat for CNC(=O)c1cnc2[nH]cc(-c3cccc(CNC(=O)c4cccn(Cc5ccc(F)c(F)c5)c4=O)c3)c2c1 [Cpd 239] < 500 nM

# repeat for CCc1ccnc(NCCC#CCCNC(=O)c2cc(Cl)cn(Cc3cccc(Cl)c3)c2=O)n1 [Cpd 257] < 500 nM

# repeat for COc1ccnc(NCCCCCNC(=O)c2cc(Br)cn(Cc3cccc(F)c3)c2=O)n1 [Cpd 253] 500 to 10000 nM

# repeat for O=C1Nc2cc(/C=C/CNC(=O)c3cccn(Cc4cc(F)c(F)c(F)c4)c3=O)ccc2/C1=C/c1cnc[nH]1 [Cpd 212] < 500 nM

# repeat for O=C(NC/C=C/c1ccc2[nH]c(=O)[nH]c2c1)c1cccn(Cc2ccc(F)c(F)c2)c1=O [Cpd 160] < 500 nM

# repeat for O=C(NCc1nc(-c2c[nH]c3ncccc23)cs1)c1cc(Cl)cn(Cc2ccc(Cl)cc2)c1=O [Cpd 273] < 500 nM

# repeat for O=C(NCc1cccc(-c2c[nH]c3ncc(F)cc23)c1)c1cccn(Cc2ccc(F)c(F)c2)c1=O [Cpd 10] < 500 nM
